Source: patent US10759796B2

TEST PROTOCOL: Fraction of drug unbound to brain proteins, mouse
Type: in vitro ADME
SETTINGS: Mouse brain proteins (Table 12); read-out: Fu (b) %
PARAMETER: fraction unbound
Answer with a number only.

The value of fraction unbound measured for the compound CN1CCN(c2cccc3nc([C@H]4CCC[C@@H](c5ncccc5Cl)N4)cn23)CC1 (single isomer, unassigned) turned out to be 0.054

====

TEST PROTOCOL: Rat pharmacokinetics and brain penetration (IV and PO)
Format: in vivo
SETTINGS: male, SD, plasma; Rat, 3 mg/kg IV; 10 mg/kg PO; read-out: t½ (converted)
PARAMETER: half-life (h)
All answers are understood in h, so give the number only.

Illustrative cases are given below, each with its answer.
[
  {
    "MOLECULE": "Cc1cccnc1[C@@H]1CCC[C@H](c2nc3cccc(N4CCN(C)CC4)n3c2Cl)N1 [Compound I-146]",
    "UNIT ABBREVIATION": "h",
    "half-life": 7.89
  },
  {
    "MOLECULE": "CN1CCN(c2cccc3nc([C@H]4CCC[C@@H](c5ncccc5Cl)N4)cn23)CC1 (single isomer, unassigned) [Compound I-188]",
    "UNIT ABBREVIATION": "h",
    "half-life": 6.87
  },
  {
    "MOLECULE": "CN1CCN(c2cccc3nc([C@H]4CCC[C@@H](c5ncccc5Cl)N4)cn23)CC1 (racemic) [Compound I-149]",
    "UNIT ABBREVIATION": "h",
    "half-life": 6.7
  }
]

Could you now look at the following molecule, please?
Reported half-life of CN1CCN(c2cccc3nc([C@@H]4CCC[C@H](c5ncccc5Cl)N4)cn23)CC1 (single isomer, unassigned) [Compound I-189] : 8.14

====

TEST PROTOCOL: Pharmacokinetics after intravenous or oral administration to dogs
Format: in vivo
SETTINGS: male, beagle; dog, PO: 3 mg/kg, plasma
Procedure: Example 32: Pharmacokinetics of Compounds After Intravenous or Oral Administration to Male Beagle Dogs The study design (9 animals, fasted overnight and fed at 4 h post dosing) consists of administrating the drug [IV: 1 mg/kg via cephalic vein injection], [PO: 3 mg/kg and 10 mg/kg via oral gavage] and collecting samples at serial bleeding for plasma at 0.03, 0.08, 0.25, 0.5, 1, 2, 4, 8, 24, 48 and 72 hr. […]
PARAMETER: AUC (µg·h/mL)
Field: numeric (µg·h/mL). Do not append units.

The compound listed as CN1CCN(c2cccc3nc([C@H]4CCC[C@@H](c5ncccc5Cl)N4)cn23)CC1 (single isomer, unassigned) shows AUC equal to 1.42

====

TEST PROTOCOL: in vitro
SETTINGS: human, Caco-2, pH 7.4
PARAMETER: efflux ratio at 90 min, 10 μM

# count of solved cases: 6
[
  {
    "COMPOUND": "Cc1cccnc1[C@@H]1CCC[C@H](c2cn3c(N4CCN(C)CC4)ccc(N)c3n2)N1C",
    "efflux ratio at 90 min, 10 μM": "10 to 30"
  },
  {
    "COMPOUND": "Cc1cccnc1[C@@H]1CCC[C@H](c2nc3c(N)ccc(N4CCN(C)CC4)n3c2Cl)N1C",
    "efflux ratio at 90 min, 10 μM": "0.1 to 10"
  },
  {
    "COMPOUND": "Cc1cccnc1[C@@H]1CCC[C@H](c2nc3ccccn3c2CCCN2CCOCC2)N1C",
    "efflux ratio at 90 min, 10 μM": "0.1 to 10"
  },
  {
    "COMPOUND": "Cc1cccnc1[C@@H]1CCC[C@H](c2cn3c(N4CCNC5(CC5)C4)cccc3n2)N1",
    "efflux ratio at 90 min, 10 μM": "10 to 30"
  },
  {
    "COMPOUND": "Cc1cccnc1[C@H]1CCC[C@@H](c2nc3cccc(N4CCN(C)CC4)n3c2C)N1 (stereo in doubt)",
    "efflux ratio at 90 min, 10 μM": "0.1 to 10"
  },
  {
    "COMPOUND": "CCN1[C@@H](c2cn3c(N4CCN(C(C)C)CC4)cccc3n2)CCC[C@H]1c1ncccc1C",
    "efflux ratio at 90 min, 10 μM": "0.1 to 10"
  }
]

Reported efflux ratio at 90 min, 10 μM of CO[C@@H](c1c([C@H]2CCC[C@@H](c3ncccc3C)N2C)nc2ccccn12)C1CCN(C)CC1 : > 30
